// provenance: ChEMBL document CHEMBL4251620

Test system: U-937
Assay: Induction of apoptosis in human U937 cells assessed as early apoptotic cells at 3 uM after 48 hrs by muse Annexin V/dead cell reagent staining-based flow cytometric analysis (reference value: 1.87%)
Type: functional
Task for the reader: assign each of the following compounds its reported Activity.
Kindly report the value followed by its unit.

For Cc1c(C(=O)/C=C/c2cccc(Cl)c2)cc2cccn2c1C(=O)c1ccccc1 , what is its reported Activity?
29.36%

For Cc1c(C(=O)/C=C/c2ccc([N+](=O)[O-])cc2)cc2cccn2c1C(=O)c1ccccc1 , what is its reported Activity?
24.87%

For Cc1c(C(=O)/C=C/c2ccncc2)cc2cccn2c1C(=O)c1ccccc1 , what is its reported Activity?
30.03%

For COc1cc(/C=C/C(=O)c2cc3cccn3c(C(=O)c3ccccc3)c2C)cc(OC)c1 , what is its reported Activity?
39.59%

For Cc1c(C(=O)/C=C/c2ccc(Br)cc2)cc2cccn2c1C(=O)c1ccccc1 , what is its reported Activity?
31.36%

###

Task for the reader: assign each of the following molecules its reported viability at 1 µM.
Tested on: U-937
Experiment: Cytotoxicity activity against human U937 cells assessed as cell viability at 1 uM after 48 hrs by CCK-8 assay
Assay type: functional
Details: U-937, 48 h, read-out: Activity

What reported viability at 1 µM corresponds to Cc1c(C(=O)/C=C/c2ccc(F)cc2)cc2cccn2c1C(=O)c1ccccc1 on U-937?
> 80%

What reported viability at 1 µM corresponds to Cc1c(C(=O)/C=C/c2cccc(F)c2)cc2cccn2c1C(=O)c1ccccc1 on U-937?
> 80%

What reported viability at 1 µM corresponds to Cc1c(C(=O)/C=C/c2ccc([N+](=O)[O-])cc2)cc2cccn2c1C(=O)c1ccccc1 on U-937?
< 80%

What reported viability at 1 µM corresponds to Cc1c(C(=O)/C=C/c2ccc3ccccc3c2)cc2cccn2c1C(=O)c1ccccc1 on U-937?
> 80%

What reported viability at 1 µM corresponds to COc1cccc(/C=C/C(=O)c2cc3cccn3c(C(=O)c3ccccc3)c2C)c1 on U-937?
> 80%

###

Tested on: U-937
Assay: Cytotoxicity activity against human U937 cells assessed as cell viability at 1 uM after 48 hrs by CCK-8 assay
Format: functional
Settings: U-937, 48 h, read-out: Activity
Task for the reader: assign each of the following molecules its reported viability at 1 µM.

For Cc1ccc(/C=C/C(=O)c2cc3cccn3c(C(=O)c3ccccc3)c2C)cc1 , what is its reported viability at 1 µM?
> 80%

For Cc1c(C(=O)/C=C/c2ccc(Br)s2)cc2cccn2c1C(=O)c1ccccc1 , what is its reported viability at 1 µM?
> 80%

For COc1ccccc1/C=C/C(=O)c1cc2cccn2c(C(=O)c2ccccc2)c1C , what is its reported viability at 1 µM?
> 80%

For Cc1c(C(=O)/C=C/c2ccc(Cl)cc2)cc2cccn2c1C(=O)c1ccccc1 , what is its reported viability at 1 µM?
> 80%

For Cc1c(C(=O)/C=C/c2ccc(Br)o2)cc2cccn2c1C(=O)c1ccccc1 , what is its reported viability at 1 µM?
> 80%

For COc1cc(/C=C/C(=O)c2cc3cccn3c(C(=O)c3ccccc3)c2C)cc(OC)c1 , what is its reported viability at 1 µM?
< 80%

For COc1ccc(/C=C/C(=O)c2cc3cccn3c(C(=O)c3ccccc3)c2C)cc1OC , what is its reported viability at 1 µM?
> 80%

For Cc1c(C(=O)/C=C/c2ccncc2)cc2cccn2c1C(=O)c1ccccc1 , what is its reported viability at 1 µM?
< 80%

For Cc1c(C(=O)/C=C/c2ccc(Br)cc2)cc2cccn2c1C(=O)c1ccccc1 , what is its reported viability at 1 µM?
< 80%

For Cc1c(C(=O)/C=C/c2ccccc2)cc2cccn2c1C(=O)c1ccccc1 , what is its reported viability at 1 µM?
> 80%
